assay: Rat B/P (brain disposition); format: in vivo, male Sprague-Dawley rats; conditions: male, Sprague-Dawley, brain, oral gavage 1 mg/kg, time point 1.0 h, Table 8, read-out: Total brain concentration
READOUT_TYPE: concentration at 1 h (ng/mL)
Kindly answer with a numeric value in ng/mL, unit omitted.

Sure, the documented concentration at 1 h for [2H]C([2H])([2H])c1c2c(nn1C1CCOCC1)OCCCn1nc(Cl)c3cnc(nc31)N2 [Example 13] is 130

###

IC50 reference
biological target: LRRK2 WT (Homo sapiens)
Sequence (Q5S007 970-2527): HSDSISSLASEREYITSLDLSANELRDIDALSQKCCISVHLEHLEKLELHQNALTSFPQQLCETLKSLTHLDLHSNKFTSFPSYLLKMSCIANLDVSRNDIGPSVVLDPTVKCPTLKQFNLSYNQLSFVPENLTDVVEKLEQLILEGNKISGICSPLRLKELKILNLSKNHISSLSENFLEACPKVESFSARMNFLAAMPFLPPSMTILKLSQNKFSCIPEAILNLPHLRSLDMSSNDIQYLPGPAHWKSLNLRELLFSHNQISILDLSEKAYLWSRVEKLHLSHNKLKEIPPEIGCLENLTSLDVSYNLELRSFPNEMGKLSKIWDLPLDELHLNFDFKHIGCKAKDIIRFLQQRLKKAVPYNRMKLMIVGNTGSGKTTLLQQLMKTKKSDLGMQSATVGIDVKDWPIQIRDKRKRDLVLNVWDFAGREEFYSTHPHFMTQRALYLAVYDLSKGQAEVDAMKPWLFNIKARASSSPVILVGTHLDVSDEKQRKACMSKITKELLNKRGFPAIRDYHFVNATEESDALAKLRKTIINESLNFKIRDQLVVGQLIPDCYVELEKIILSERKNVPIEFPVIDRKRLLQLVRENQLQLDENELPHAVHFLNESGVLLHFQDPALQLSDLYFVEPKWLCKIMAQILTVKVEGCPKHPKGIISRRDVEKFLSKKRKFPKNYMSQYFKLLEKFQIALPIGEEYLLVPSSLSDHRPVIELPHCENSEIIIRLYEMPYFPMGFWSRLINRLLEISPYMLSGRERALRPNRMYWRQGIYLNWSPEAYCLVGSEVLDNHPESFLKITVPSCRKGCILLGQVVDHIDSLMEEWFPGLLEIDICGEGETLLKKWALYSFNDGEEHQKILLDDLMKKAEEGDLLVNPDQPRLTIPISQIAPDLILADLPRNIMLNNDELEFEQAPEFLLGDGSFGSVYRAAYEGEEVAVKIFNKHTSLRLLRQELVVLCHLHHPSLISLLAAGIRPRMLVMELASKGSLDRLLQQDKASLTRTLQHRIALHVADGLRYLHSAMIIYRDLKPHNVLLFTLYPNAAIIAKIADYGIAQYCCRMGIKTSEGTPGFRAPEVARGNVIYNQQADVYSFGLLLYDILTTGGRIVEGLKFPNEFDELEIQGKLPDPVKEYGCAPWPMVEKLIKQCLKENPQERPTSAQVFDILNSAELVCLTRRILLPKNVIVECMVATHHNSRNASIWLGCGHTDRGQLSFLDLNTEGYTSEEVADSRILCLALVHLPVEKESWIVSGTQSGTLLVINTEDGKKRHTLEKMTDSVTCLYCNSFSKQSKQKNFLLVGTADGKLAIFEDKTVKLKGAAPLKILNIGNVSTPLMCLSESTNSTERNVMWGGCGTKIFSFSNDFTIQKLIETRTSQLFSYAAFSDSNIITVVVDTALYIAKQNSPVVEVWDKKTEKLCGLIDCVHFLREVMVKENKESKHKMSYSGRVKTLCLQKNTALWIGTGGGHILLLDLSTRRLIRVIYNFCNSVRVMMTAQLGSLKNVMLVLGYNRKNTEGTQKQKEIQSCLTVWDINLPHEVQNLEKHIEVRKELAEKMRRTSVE
The answer consists of two parts: a number and, after it, its unit.

# count of solved cases: 5
Cc1c2c(nn1C1CC3(COC3)C1)OCCCn1nc(Cl)c3cnc(nc31)N2 [Example 34]
18 nM
Cc1c2c(nn1[C@H]1CC[C@H](F)CC1)OCCCn1nc(Cl)c3cnc(nc31)N2 [Example 25]
16 nM
Cc1c2c(nn1[C@H]1CCOC(C)(C)C1)OCCCn1nc(Cl)c3cnc(nc31)N2 (single isomer, unassigned) [Example 43]
17 nM
[2H]C([2H])([2H])c1c2c(nn1[C@H]1CCO[C@@H](C)C1)OCCCn1nc(Cl)c3cnc(nc31)N2 (single isomer, unassigned) [Example 51]
9 nM
Cc1c2c(nn1[C@H]1CCCOC1)OCCCn1nc(Cl)c3cnc(nc31)N2 (single isomer, unassigned) [Example 4]
12 nM

Here [2H]C([2H])([2H])c1c2c(nn1[C@@H]1CCOC[C@H]1F)OCCCn1nc(Cl)c3cnc(nc31)N2 (single isomer, unassigned) [Example 62] was tested on LRRK2 WT (Homo sapiens), and its IC50 came to 17 nM

Here Cc1c2c(nn1[C@H]1C[C@@H](C)O[C@@H](C)C1)OCCCn1nc(Cl)c3cnc(nc31)N2 [Example 41] was tested on LRRK2 WT (Homo sapiens), and its IC50 came to 17 nM

###

assay: Rat B/P (brain disposition); assay type: in vivo, male Sprague-Dawley rats; details: male, Sprague-Dawley, brain/plasma, po, 10 mg/kg, oral gavage 10 mg/kg, time point 1.0 h, fubrain from brain homogenate
Kp uu at 1 h reference
Respond numerically, and do not add a unit to the figure.

CCc1c2c(nn1C1CCOCC1)OCCCn1nc(Cl)c3cnc(nc31)N2 [Example 17]
0.59
Cc1c2c(nn1C1CCOCC1)OCCCn1nc(Br)c3cnc(nc31)N2 [Example 6]
0.44
[2H]C([2H])([2H])c1c2c(nn1C1CCOCC1)OCCCn1nc(Cl)c3cnc(nc31)N2 [Example 13]
0.28

Sure, the documented Kp uu at 1 h for Cc1c2c(nn1[C@H]1CC[C@H](F)CC1)OCCCn1nc(Cl)c3cnc(nc31)N2 [Example 25] is 0.65

###

experiment: Rat B/P (brain disposition); assay type: in vivo, male Sprague-Dawley rats; conditions: male, Sprague-Dawley, plasma, oral gavage 3 mg/kg, time point 1.0 h, mean ± stdev, n = 3, read-out: Total plasma concentration
READOUT_TYPE: concentration at 1 h (ng/mL)
Kindly answer with a numeric value in ng/mL, unit omitted.

Sure, the documented concentration at 1 h for "[2H]C([2H])([2H])c1c2c(nn1C1CCOCC1)OCCCn1nc(Cl)c3cnc(nc31)N2" is 340

###

experiment: Rat B/P (brain disposition); assay type: in vivo, male Sprague-Dawley rats; settings: male, Sprague-Dawley, brain, oral gavage 5 mg/kg, time point 0.5 h, mean ± stdev, n = 3, read-out: Total brain concentration
concentration at 0.5 h reference
Kindly answer with a numeric value in ng/g, unit omitted.

Sure, the documented concentration at 0.5 h for Cc1c2c(nn1[C@@H]1CC1(F)F)OCCCn1nc(Cl)c3cnc(nc31)N2 (single isomer, unassigned) [Example 40] is 138

Sure, the documented concentration at 0.5 h for Cc1c2c(nn1[C@H]1CCOC[C@]1(C)F)OCCCn1nc(Cl)c3cnc(nc31)N2 (single isomer, unassigned) [Example 47] is 235

###

concentration at 0.5 h reference
experiment: Rat B/P (brain disposition); type: in vivo, male Sprague-Dawley rats; conditions: male, Sprague-Dawley, brain, oral gavage 10 mg/kg, time point 0.5 h, mean ± stdev, n = 3, read-out: Total brain concentration
Kindly answer with a numeric value in ng/g, unit omitted.

Cc1c2c(nn1[C@H]1CCOC(C)(C)C1)OCCCn1nc(Cl)c3cnc(nc31)N2 (single isomer, unassigned)
550
Cc1c2c(nn1[C@@H]1CCO[C@H](C)C1)OCCCn1nc(Cl)c3cnc(nc31)N2 (single isomer, unassigned)
1430
Cc1c2c(nn1[C@H]1C[C@@H](C)O[C@@H](C)C1)OCCCn1nc(Cl)c3cnc(nc31)N2
620
CO[C@H]1CC[C@H](n2nc3c(c2C)Nc2ncc4c(Cl)nn(c4n2)CCCO3)CC1
683
Cc1c2c(nn1[C@H]1[C@@H]3COC[C@@H]31)OCCCn1nc(Cl)c3cnc(nc31)N2
562

Sure, the documented concentration at 0.5 h for "Cc1c2c(nn1[C@@H]1C[C@H]3CC[C@@H](C1)O3)OCCCn1nc(Cl)c3cnc(nc31)N2" is 731

###

test: Minipig B/P (brain disposition); format: in vivo, female Gottingen minipigs; details: female, Gottingen, plasma, IV bolus 0.28 mg/kg + IV infusion 0.60 mg/kg, time point 0.083 h, mean ± stdev, n = 3, read-out: CTotal, plasma
READOUT_TYPE: concentration at 0.083 h (ng/mL)
Kindly answer with a numeric value in ng/mL, unit omitted.

Sure, the documented concentration at 0.083 h for [2H]C([2H])([2H])c1c2c(nn1C1CCOCC1)OCCCn1nc(Cl)c3cnc(nc31)N2 [Example 13] is 95

###

experiment: Hepatocyte intrinsic clearance assay; type: in vitro ADME, human; details: human, pooled donor, cryopreserved hepatocytes, pH 7.4, 0.1 μM, 2 h at 37° C., 1×10^6 hepatocytes/mL; * measured on 3 separate occasions, ** on a single occasion
The threshold is inclusive: CLint scaled at 0.1 μM of exactly 6 mL/min/kg counts as yes; values below receive no.

# example entries with known answers
[2H]C([2H])([2H])c1c2c(nn1[C@H]1CCO[C@@H](C)C1)OCCCn1nc(Cl)c3cnc(nc31)N2 (single isomer, unassigned) [Example 51]
no
Cc1c2c(nn1C1CCOCC1)OCCCn1nc(Cl)c3cnc(nc31)N2 [Example 2]
yes
CO[C@H]1CC[C@H](n2nc3c(c2C)Nc2ncc4c(Cl)nn(c4n2)CCCO3)CC1 [Example 37]
no
CCc1c2c(nn1C1CCOCC1)OCCCn1nc(Cl)c3cnc(nc31)N2 [Example 17]
no
[2H]C([2H])([2H])c1c2c(nn1[C@H]1CC[C@H](OC)CC1)OCCCn1nc(Cl)c3cnc(nc31)N2 [Example 50]
no
[2H]C([2H])([2H])c1c2c(nn1C1([2H])CCOCC1)OCCCn1nc(Cl)c3cnc(nc31)N2 [Example 15]
no
Cc1c2c(nn1[C@H]1CCOC(C)(C)C1)OCCCn1nc(Cl)c3cnc(nc31)N2 (single isomer, unassigned) [Example 42]
yes
Cc1c2c(nn1[C@H]1C[C@@H](C)O[C@@H](C)C1)OCCCn1nc(Cl)c3cnc(nc31)N2 [Example 41]
no
[2H]C([2H])([2H])c1c2c(nn1[C@H]1CCCOCC1)OCCCn1nc(Cl)c3cnc(nc31)N2 (single isomer, unassigned) [Example 58]
no
Cc1c2c(nn1[C@H]1CCCOCC1)OCCCn1nc(Cl)c3cnc(nc31)N2 (single isomer, unassigned) [Example 29]
yes

## Task Say whether Cc1c2c(nn1[C@H]1CCCCOC1)OCCCn1nc(Cl)c3cnc(nc31)N2 (single isomer, unassigned) [Example 27] shows CLint scaled at 0.1 μM of 6 mL/min/kg or more.
## Result yes

## Task Say whether CCc1c2c(nn1[C@H]1CC[C@H](OC)CC1)OCCCn1nc(Cl)c3cnc(nc31)N2 [Example 57] shows CLint scaled at 0.1 μM of 6 mL/min/kg or more.
## Result yes

## Task Say whether Cc1c2c(nn1[C@@H]1C[C@H]3CC[C@@H](C1)O3)OCCCn1nc(Cl)c3cnc(nc31)N2 [Example 44] shows CLint scaled at 0.1 μM of 6 mL/min/kg or more.
## Result no

###

test system: pooled donor, cryopreserved hepatocytes; assay: Hepatocyte intrinsic clearance assay; format: in vitro ADME, human; settings: 0.1 μM, 2 h at 37° C., 1×10^6 hepatocytes/mL; * measured on 3 separate occasions, ** on a single occasion
READOUT_TYPE: CLint (L/h/kg)
Kindly answer with a numeric value in L/h/kg, unit omitted.

# count of solved cases: 2
Cc1c2c(nn1[C@H]1CCCOC1)OCCCn1nc(Cl)c3cnc(nc31)N2 (single isomer, unassigned) [Example 3]
0.33
[2H]C([2H])([2H])c1c2c(nn1[C@H]1CCCOCC1)OCCCn1nc(Cl)c3cnc(nc31)N2 (single isomer, unassigned)
0.40

Next molecule, CLint to be filled in.
Here Cc1c2c(nn1[C@H]1CCCOCC1)OCCCn1nc(Cl)c3cnc(nc31)N2 (single isomer, unassigned) was tested on pooled donor, cryopreserved hepatocytes, and its CLint came to 0.63
